Source of measurements: patent US10494332B2

Target: UniProtKB P18031
Sequence (P18031 1-435): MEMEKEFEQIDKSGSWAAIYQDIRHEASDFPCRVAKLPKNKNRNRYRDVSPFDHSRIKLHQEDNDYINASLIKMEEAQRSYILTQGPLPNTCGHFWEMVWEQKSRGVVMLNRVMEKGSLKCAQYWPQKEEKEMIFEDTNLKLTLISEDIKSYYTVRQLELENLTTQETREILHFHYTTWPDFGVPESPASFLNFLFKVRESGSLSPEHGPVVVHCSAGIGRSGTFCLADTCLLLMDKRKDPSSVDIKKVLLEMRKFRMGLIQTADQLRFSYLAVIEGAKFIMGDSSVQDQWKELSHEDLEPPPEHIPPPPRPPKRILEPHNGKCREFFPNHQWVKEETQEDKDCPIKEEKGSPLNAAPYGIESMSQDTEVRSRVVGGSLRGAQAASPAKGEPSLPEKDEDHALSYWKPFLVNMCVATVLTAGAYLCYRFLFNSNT
pIC50: −log10 of the molar value.

molecule: O=C(Nc1nc2ccc(Cl)cc2s1)C(c1ccccc1)S(=O)(=O)O (stereo not drawn) [Compound L319N15-06]
pIC50: 4.10
//
molecule: O=C(C(c1ccccc1)S(=O)(=O)O)N1CCC(Cc2ccccc2)CC1 (stereo not drawn) [Compound L319N46]
pIC50: < 3.70
//
molecule: Cc1cc2nc(NC(=O)C(c3ccccc3)S(=O)(=O)O)sc2cc1C (stereo not drawn) [Compound L319N15-04]
pIC50: < 3.70
//
molecule: O=C(Nc1nccs1)C(c1ccccc1)S(=O)(=O)O (stereo not drawn) [Compound L319N13]
pIC50: < 4.00
//
molecule: Cc1ccc2nc(NC(=O)C(c3ccccc3)S(=O)(=O)O)sc2c1 (stereo not drawn) [Compound L319N15-08]
pIC50: < 3.70
//
molecule: O=C(CS(=O)(=O)O)Nc1ccc2nc(C(F)(F)F)[nH]c2c1
pIC50: < 4.00
//
molecule: O=C(NCCNC(=O)C(c1ccccc1)S(=O)(=O)O)c1cccc(C(=O)c2ccccc2)c1 (stereo not drawn) [Compound L319-02-A60]
pIC50: < 3.70
//
molecule: O=C(C(c1ccccc1)S(=O)(=O)O)N1CCC(c2ccc(Cl)c(Cl)c2)CC1 (stereo not drawn) [Compound L319N47]
pIC50: 3.84
//
molecule: Cc1cccc2sc(NC(=O)C(c3ccccc3)S(=O)(=O)O)nc12 (stereo not drawn) [Compound L319N15-02]
pIC50: < 3.70
//
molecule: O=C(Nc1cccc(OCc2ccccc2)c1)C(c1ccccc1)S(=O)(=O)O (stereo not drawn) [Compound L319M52]
pIC50: < 3.70
//
molecule: O=C(Nc1cccc(OCc2ccccc2)c1)C(=O)Nc1ccccc1NC(=O)C(c1ccccc1)S(=O)(=O)O (stereo not drawn) [Compound L319-21-M52]
pIC50: < 4.30
//
molecule: O=C(Nc1cnc2ccccc2c1)C(c1ccccc1)S(=O)(=O)O (stereo not drawn) [Compound L319M88]
pIC50: < 3.70

====

pIC50: −log10 of the molar value.
// VHR (Homo sapiens) pIC50 records
property-label: pIC50

molecule: CCCCc1ccc(NC(=O)C(=O)Nc2ccccc2NC(=O)C(c2ccccc2)S(=O)(=O)O)cc1 (stereo not shown)
result: < 4.30

molecule: O=C(CS(=O)(=O)O)Nc1nc2ccc([N+](=O)[O-])cc2s1
result: < 4.00

molecule: O=C(CS(=O)(=O)O)Nc1nc2ccccc2s1
result: < 4.00

molecule: O=C(Nc1nc2ccccc2s1)C(c1ccccc1)S(=O)(=O)O (stereo not shown)
result: < 3.70

====

biological target: SHP2 (Homo sapiens); experiment: SHP2 phosphatase inhibition assay (pNPP); type: biochemical; conditions: pNPP at Km, pH 7.0, 25° C.; read-out: IC50 SHP2
Sequence (Q06124 224-528): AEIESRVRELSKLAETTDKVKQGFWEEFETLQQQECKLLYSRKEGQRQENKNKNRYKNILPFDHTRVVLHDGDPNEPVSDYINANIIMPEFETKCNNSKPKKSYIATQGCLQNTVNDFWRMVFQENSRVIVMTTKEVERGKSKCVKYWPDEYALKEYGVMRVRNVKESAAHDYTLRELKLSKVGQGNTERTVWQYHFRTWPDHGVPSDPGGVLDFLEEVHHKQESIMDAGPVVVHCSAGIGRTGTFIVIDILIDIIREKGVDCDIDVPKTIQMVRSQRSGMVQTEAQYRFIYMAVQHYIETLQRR
pIC50: −log10 of the molar value.
# pIC50 listing for each entry below
property-label: pIC50

compound: COc1cccc2sc(NC(=O)C(c3ccccc3)S(=O)(=O)O)nc12 (stereo not drawn)
assay-system: SHP2 (Homo sapiens)
result: < 3.70

compound: O=C(C(c1ccccc1)S(=O)(=O)O)N1CCC(c2ccc(Cl)c(Cl)c2)CC1 (stereo not drawn)
assay-system: SHP2 (Homo sapiens)
result: 4.12

compound: O=C(Nc1cccc(OCc2ccccc2)c1)C(c1ccccc1)S(=O)(=O)O (stereo not drawn)
assay-system: SHP2 (Homo sapiens)
result: < 3.70

====

molecular target: PP5 (Homo sapiens, UniProt P53041); assay: biochemical
Sequence (P53041 whole entry): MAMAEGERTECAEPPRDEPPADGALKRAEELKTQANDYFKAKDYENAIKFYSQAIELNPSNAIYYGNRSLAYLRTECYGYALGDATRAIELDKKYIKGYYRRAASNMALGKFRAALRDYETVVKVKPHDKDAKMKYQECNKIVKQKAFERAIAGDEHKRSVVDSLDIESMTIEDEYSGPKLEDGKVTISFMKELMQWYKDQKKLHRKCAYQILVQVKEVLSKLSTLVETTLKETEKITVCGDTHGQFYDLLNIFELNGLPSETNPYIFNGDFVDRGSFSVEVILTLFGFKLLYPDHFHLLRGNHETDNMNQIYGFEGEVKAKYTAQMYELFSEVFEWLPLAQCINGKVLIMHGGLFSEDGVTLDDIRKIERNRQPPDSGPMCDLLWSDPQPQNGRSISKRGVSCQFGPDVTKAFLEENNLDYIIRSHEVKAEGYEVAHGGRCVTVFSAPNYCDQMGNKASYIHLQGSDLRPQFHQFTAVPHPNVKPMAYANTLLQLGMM
property-label: IC50

compound: O=C(Nc1ccc(NC(=O)C(c2ccccc2)S(=O)(=O)O)cc1)C(=O)Nc1ccc(-c2ccccc2)cc1 (centres unmarked)
result: > 10 µM
//
compound: O=C(Nc1ccc(I)cc1)C(=O)Nc1ccc(NC(=O)C(c2ccccc2)S(=O)(=O)O)cc1 (centres unmarked)
result: > 10 µM
//
compound: O=C(Nc1ccc(NC(=O)C(c2ccccc2)S(=O)(=O)O)cc1)C(=O)Nc1cc(-c2ccc(Br)cc2)n[nH]1 (centres unmarked)
result: > 10 µM
//
compound: NC(=O)c1cc[n+](CC2=C(C(=O)O)N3C(=O)[C@@H](NC(=O)[C@@H](c4ccccc4)S(=O)(=O)[O-])[C@H]3SC2)cc1 [Cefsulodin, reference compound]
result: > 200 µM
//
compound: O=C(Nc1ccc(NC(=O)C(c2ccccc2)S(=O)(=O)O)cc1)C(=O)Nc1ccc(-c2cccs2)cc1 (centres unmarked)
result: > 10 µM

====

biological target: UniProt Q06124; test: SHP2 phosphatase inhibition assay (pNPP); type: biochemical; conditions: pNPP at Km, pH 7.0, 25° C.; read-out: IC50 SHP2
# IC50 listing for each entry below

compound: Cc1c(Br)cc(NC(=O)CS(=O)(=O)O)cc1Br
IC50: > 100 µM
--
compound: O=C(Nc1nc2ccccc2s1)C(c1ccc(Br)cc1)S(=O)(=O)O (stereo not shown)
IC50: > 200 µM
--
compound: O=C(CS(=O)(=O)O)Nc1nc2ccc([N+](=O)[O-])cc2s1
IC50: > 100 µM
--
compound: O=C(C(c1ccccc1)S(=O)(=O)O)N1CCCC2CCCCC21 (stereo not shown)
IC50: > 200 µM

====

Molecular target: PTP1B (Homo sapiens)
Sequence (P18031 1-435): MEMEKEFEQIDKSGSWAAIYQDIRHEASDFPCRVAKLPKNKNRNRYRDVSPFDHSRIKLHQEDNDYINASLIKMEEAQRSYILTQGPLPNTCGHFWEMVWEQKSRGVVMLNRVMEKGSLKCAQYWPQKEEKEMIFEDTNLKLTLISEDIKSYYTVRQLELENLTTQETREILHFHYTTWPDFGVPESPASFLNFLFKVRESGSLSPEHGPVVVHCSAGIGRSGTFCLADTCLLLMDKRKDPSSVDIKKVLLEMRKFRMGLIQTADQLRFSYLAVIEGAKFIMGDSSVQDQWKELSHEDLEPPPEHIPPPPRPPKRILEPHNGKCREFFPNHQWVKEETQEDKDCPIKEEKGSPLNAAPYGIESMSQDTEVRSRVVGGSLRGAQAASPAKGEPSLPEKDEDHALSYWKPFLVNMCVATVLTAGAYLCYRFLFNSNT
property-label: IC50

compound: O=C(CS(=O)(=O)O)Nc1cnc2ccccc2c1
property-label: IC50
result: > 100 µM
--
compound: O=C(Nc1nc2ccccc2s1)C(c1ccc(Br)cc1)S(=O)(=O)O (stereo not drawn)
property-label: IC50
result: > 200 µM
--
compound: COc1ccc2nc(NC(=O)C(c3ccccc3)S(=O)(=O)O)sc2c1 (stereo not drawn)
property-label: IC50
result: > 200 µM
--
compound: O=C(C(c1ccccc1)S(=O)(=O)O)N1CCCC2CCCCC21 (stereo not drawn)
property-label: IC50
result: > 200 µM
--
compound: O=C(Nc1nc2ccc(O[N+](=O)[O-])cc2s1)C(c1ccccc1)S(=O)(=O)O (stereo not drawn)
property-label: IC50
result: > 200 µM
--
compound: CCCCc1ccc(NC(=O)C(=O)Nc2ccccc2NC(=O)C(c2ccccc2)S(=O)(=O)O)cc1 (stereo not drawn)
property-label: IC50
result: > 50 µM
--
compound: O=C(Nc1nc2ccc(F)cc2s1)C(c1ccccc1)S(=O)(=O)O (stereo not drawn)
property-label: IC50
result: > 200 µM
--
compound: O=C(Nc1nc2ccccc2s1)C(c1ccc([N+](=O)[O-])cc1)S(=O)(=O)O (stereo not drawn)
property-label: IC50
result: > 200 µM
--
compound: O=C(Nc1ccc(OCc2ccccc2)c(Cl)c1)C(c1ccccc1)S(=O)(=O)O (stereo not drawn)
property-label: IC50
result: > 200 µM

====

Target: LYP (Homo sapiens, UniProt Q9Y2R2)
Sequence (Q9Y2R2 1-807): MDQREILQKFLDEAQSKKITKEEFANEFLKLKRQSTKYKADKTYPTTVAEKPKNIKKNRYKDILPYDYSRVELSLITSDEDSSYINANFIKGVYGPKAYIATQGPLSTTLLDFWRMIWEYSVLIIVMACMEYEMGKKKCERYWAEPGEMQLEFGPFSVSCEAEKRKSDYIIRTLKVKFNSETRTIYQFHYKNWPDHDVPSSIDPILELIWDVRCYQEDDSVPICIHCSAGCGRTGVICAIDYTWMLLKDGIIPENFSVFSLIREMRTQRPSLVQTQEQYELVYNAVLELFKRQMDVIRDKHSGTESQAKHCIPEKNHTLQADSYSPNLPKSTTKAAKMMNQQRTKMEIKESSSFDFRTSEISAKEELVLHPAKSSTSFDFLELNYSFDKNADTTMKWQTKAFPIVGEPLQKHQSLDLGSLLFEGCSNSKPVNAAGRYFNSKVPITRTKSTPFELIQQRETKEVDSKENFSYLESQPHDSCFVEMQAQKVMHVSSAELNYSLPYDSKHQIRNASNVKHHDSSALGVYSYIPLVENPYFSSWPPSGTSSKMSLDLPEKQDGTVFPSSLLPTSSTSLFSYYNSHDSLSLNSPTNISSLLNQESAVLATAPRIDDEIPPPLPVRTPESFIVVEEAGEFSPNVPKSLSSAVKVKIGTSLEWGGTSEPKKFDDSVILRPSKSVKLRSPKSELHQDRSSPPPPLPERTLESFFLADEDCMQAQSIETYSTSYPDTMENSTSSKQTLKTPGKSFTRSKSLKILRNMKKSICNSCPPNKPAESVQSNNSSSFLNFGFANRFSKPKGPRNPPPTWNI
Assay: PTP inhibition assay (pNPP)
Format: biochemical
Conditions: pNPP at Km, pH 7.0, 25° C.
pIC50: −log10 of the molar value.
# pIC50 listing for each entry below
property-label: pIC50

compound: O=C(Nc1nc2ccc(O[N+](=O)[O-])cc2s1)C(c1ccccc1)S(=O)(=O)O (stereo not shown)
result: < 4.00
--
compound: O=C(CS(=O)(=O)O)Nc1cnc2ccccc2c1
result: < 4.00
--
compound: O=C(Nc1nc(-c2ccccc2)cs1)C(c1ccccc1)S(=O)(=O)O (stereo not shown)
result: 4.82
--
compound: O=C(Nc1cccc(OCc2ccccc2)c1)C(=O)Nc1ccccc1NC(=O)C(c1ccccc1)S(=O)(=O)O (stereo not shown)
result: < 4.30
